Test system: redroot pigweed (Amaranthus retroflexus)
Assay: Test G Post-Emergence Protocol
Type: in vivo
Settings: Amaranthus retroflexus, post-emergence, 312 h, 250 g ai/ha, evaluated after 13 days, read-out: damage to plant, Pigweed, Redroot (100=total damage to plant; 0=no damage to plant)
Measured quantity: pest or weed control at 250 g/ha (%)
Write the answer as a number in %, unit excluded.

// solved cases for pest or weed control at 250 g/ha follow
Cc1cc(Cl)ncc1NC(=O)[C@@H]1C(=O)N(C)C[C@H]1c1ccc(C(F)(F)F)cc1 (racemic) [Compound 1578]
30
CN1C[C@H](c2ccc3c(c2)CCO3)[C@@H](C(=O)Nc2cccc(F)c2F)C1=O (racemic) [Compound 1499]
0

Lookup result for CN1C[C@H](c2ccc(F)c(OCC(F)(F)F)c2)[C@@H](C(=O)Nc2ccccc2F)C1=O (racemic) [Compound 1456] ; measured pest or weed control at 250 g/ha: 40
